test: in vitro; conditions: African green monkey
So I've got a bunch of compounds here, and I need their CC50 values.

// known answers, use as guide
Cc1coc2c1C(=O)C(=O)c1c-2ccc2c(C)cccc12 = > 300 µM
C[C@H]1COC2=C1C(=O)C(=O)c1c2ccc2c1CCCC2(C)C = > 300 µM

Attention now shifts to the item below.
Request: // lookup CC50 for Br.COCCn1c2c([n+](Cc3cnccn3)c1C)C(=O)c1ccccc1C2=O [YM155, Sepantronium Bromide]
Result: > 133 µM

----------
target: SARS-CoV-2 papain-like protease (Severe acute respiratory syndrome coronavirus 2, UniProt P0DTD1)
measured_quantity: pIC50
Give bare numbers, as −log10 of the molar value.

Request: // lookup pIC50 for Br.COCCn1c2c([n+](Cc3cnccn3)c1C)C(=O)c1ccccc1C2=O [YM155, Sepantronium Bromide]
Result: 5.61
